Source of measurements: patent US20210284647A1

Tested on: human Jurkat T cells deficient in FADD
Test: Cell protection effect under apoptosis-inducing condition (TNF-α)
Format: cell-based
Conditions: 40 ng of TNF-α, 50 hours, CellTiter-Glo, read-out: I2.I Cell EC50
pEC50: −log10 of the molar value. Structures can show the parent of a compound that is named as a salt.
Values of pEC50 greater than or equal to 9 map to 1; values below map to -1.

| Compound | Group label |
| --- | --- |
| O=C(Nc1cccc(C#Cc2cnc3cccnn23)c1)N1N=CCC1c1cccnc1 (centres unmarked) [Example 36, 2,2,2-trifluoroacetate] | -1 |
| Cc1ccc(NC(=O)N2N=CC[C@H]2c2ccccc2)cc1C#Cc1cnc2cccnn12 [Example 2, 2,2,2-trifluoroacetate] | 1 |
| O=C(Nc1cccc(C#Cc2cnc3cccnn23)c1)N1N=CCC1c1cccc(Cl)c1 (centres unmarked) [Example 34, 2,2,2-trifluoroacetate] | -1 |
| Nc1cccn2c(C#Cc3cccc(NC(=O)N4N=CCC4c4ccccc4)c3)cnc12 (centres unmarked) [Example 59, hydrochloride] | -1 |
| O=C(Nc1cc(C#Cc2cnc3cccnn23)ccn1)N1N=CCC1c1ccccc1 (centres unmarked) [Example 52, 2,2,2-trifluoroacetate] | -1 |
| CC(=O)Nc1cccn2c(C#Cc3cccc(NC(=O)N4N=CCC4c4ccccc4)c3)cnc12 (centres unmarked) | 1 |

Ask: Can Cn1cc(Nc2cccn3c(C#Cc4cccc(NC(=O)N5N=CCC5c5ccccc5)c4)cnc23)cn1 (centres unmarked) [Example 67, 2,2,2-trifluoroacetate] be said to have pEC50 at or above 9?
Result: 1

Ask: Can Cc1ccc(C(=O)N2N=CCC2c2ccccc2)cc1C#Cc1cnc2cccnn12 (centres unmarked) [Example 54, 2,2,2-trifluoroacetate] be said to have pEC50 at or above 9?
Result: -1

Ask: Can Cc1ccc(NC(=O)N2N=CCC2c2cccc(Cl)c2)cc1C#Cc1cnc2cccnn12 (centres unmarked) [Example 14, 2,2,2-trifluoroacetate] be said to have pEC50 at or above 9?
Result: 1

Ask: Can Cc1ccc(NC(=O)N2N=CC[C@H]2c2ccc(F)cc2)cc1C#Cc1cnc2cccnn12 [Example 12, 2,2,2-trifluoroacetate] be said to have pEC50 at or above 9?
Result: 1
